- System: CCRF-CEM
- MEASUREMENT DESCRIPTION: NCI tumour cell line growth inhibition, 48 h
Calls of active or inactive are those of the source. Rule as the data show it: active = GI50 up to about 1.1 µM and inactive = higher.
Outcomes: active, inactive

COMPOUND: CCOC(=O)c1csc(-c2nc(CCNC(=O)c3ccccc3)sc2Cl)n1
LABEL VALUE: inactive
//
COMPOUND: CN1CCc2c(sc3nc(Nc4ccccc4)n(N)c(=O)c23)C1
LABEL VALUE: inactive
//
COMPOUND: O=C1OC(c2ccccc2)=N/C1=C\c1ccc(F)cc1
LABEL VALUE: inactive
//
COMPOUND: O=[N+]([O-])c1ccc(Cl)c(/C=N/C23CC4CC(CC(C4)C2)C3)c1
LABEL VALUE: inactive
//
COMPOUND: CCOC(=O)c1c(Br)c(-c2ccc([N+](=O)[O-])cc2)c(Br)n1C
LABEL VALUE: inactive
//
COMPOUND: CCN(CC)c1ccc2cc(C(=O)Nc3ccccc3)c(=N)oc2c1
LABEL VALUE: inactive
//
COMPOUND: CCOc1ccccc1NC(=O)C1=C(C)NC(C)=C(C(=O)Nc2ccccc2OCC)C1c1ccc2c(c1)OCO2
LABEL VALUE: inactive
//
COMPOUND: O=C1OC(Cc2ccccc2)(N2CCCC2=O)C1c1ccccc1 (stereo unspecified)
LABEL VALUE: inactive
//
COMPOUND: CC1CCCP(=O)(c2ccccc2)CC1 (stereo unspecified)
LABEL VALUE: inactive
//
COMPOUND: COc1cc(/C=C2\CCC(C)C3=C2NC(=S)NC3c2cc(OC)c(OC)c(OC)c2)cc(OC)c1OC (stereo unspecified)
LABEL VALUE: inactive
//
COMPOUND: COC(=O)C1CC2(c3ccccc3)C(=O)c3ccccc3N2O1 (stereo unspecified)
LABEL VALUE: inactive
//
COMPOUND: COC(=N)c1ncn(Cc2ccccc2)c1N
LABEL VALUE: inactive
//
COMPOUND: COC(=O)N1C=CC2=C(C)C3Nc4ccccc4C3C(C)=C2C1 (stereo unspecified)
LABEL VALUE: active
//
COMPOUND: C1=C2/CC[C@H](Sc3ccccc3)[C@H]2C2(CCCCC/1)OCCO2
LABEL VALUE: inactive
//
COMPOUND: CC(=O)Nc1ccc(-c2nnc(SCC(=O)Nc3ccccc3)o2)cc1
LABEL VALUE: inactive
//
COMPOUND: Nn1c(=O)n(Cc2ccccc2)n(-c2ccccc2)c1=O
LABEL VALUE: inactive
//
COMPOUND: O=C1c2cscc2C(=O)c2c(OCc3ccccc3)ccc(OCc3ccccc3)c21
LABEL VALUE: inactive
//
COMPOUND: CC1(Cc2cc3c(cc2C2(c4ccc([N+](=O)[O-])cc4)OCCO2)OCO3)OCCO1
LABEL VALUE: inactive
//
COMPOUND: CC1(C)C(=O)N(CCCCCCN2C(=O)C(C)(C)c3ccccc32)c2ccccc21
LABEL VALUE: inactive
//
COMPOUND: CS(=O)(=O)OCCN(CCOS(C)(=O)=O)c1ccc(/C=N/c2ccc(-c3csc(COc4ccccc4)n3)cc2)cc1
LABEL VALUE: active
//
COMPOUND: COc1ccc(C2=C(Cl)c3cc(OC)c(OC)cc3C2)cc1OC
LABEL VALUE: inactive
